Reported pIC50 values for a set of compounds
biological target: PI3Kα (p110[H1047R]/p85) kinase (Homo sapiens, UniProt P42336, H1047R); experiment: PI3Kα (p110[H1047R]/p85) kinase ADP-Glo Assay; conditions: 25 uM ATP
Sequence (P42336 whole entry H1047R): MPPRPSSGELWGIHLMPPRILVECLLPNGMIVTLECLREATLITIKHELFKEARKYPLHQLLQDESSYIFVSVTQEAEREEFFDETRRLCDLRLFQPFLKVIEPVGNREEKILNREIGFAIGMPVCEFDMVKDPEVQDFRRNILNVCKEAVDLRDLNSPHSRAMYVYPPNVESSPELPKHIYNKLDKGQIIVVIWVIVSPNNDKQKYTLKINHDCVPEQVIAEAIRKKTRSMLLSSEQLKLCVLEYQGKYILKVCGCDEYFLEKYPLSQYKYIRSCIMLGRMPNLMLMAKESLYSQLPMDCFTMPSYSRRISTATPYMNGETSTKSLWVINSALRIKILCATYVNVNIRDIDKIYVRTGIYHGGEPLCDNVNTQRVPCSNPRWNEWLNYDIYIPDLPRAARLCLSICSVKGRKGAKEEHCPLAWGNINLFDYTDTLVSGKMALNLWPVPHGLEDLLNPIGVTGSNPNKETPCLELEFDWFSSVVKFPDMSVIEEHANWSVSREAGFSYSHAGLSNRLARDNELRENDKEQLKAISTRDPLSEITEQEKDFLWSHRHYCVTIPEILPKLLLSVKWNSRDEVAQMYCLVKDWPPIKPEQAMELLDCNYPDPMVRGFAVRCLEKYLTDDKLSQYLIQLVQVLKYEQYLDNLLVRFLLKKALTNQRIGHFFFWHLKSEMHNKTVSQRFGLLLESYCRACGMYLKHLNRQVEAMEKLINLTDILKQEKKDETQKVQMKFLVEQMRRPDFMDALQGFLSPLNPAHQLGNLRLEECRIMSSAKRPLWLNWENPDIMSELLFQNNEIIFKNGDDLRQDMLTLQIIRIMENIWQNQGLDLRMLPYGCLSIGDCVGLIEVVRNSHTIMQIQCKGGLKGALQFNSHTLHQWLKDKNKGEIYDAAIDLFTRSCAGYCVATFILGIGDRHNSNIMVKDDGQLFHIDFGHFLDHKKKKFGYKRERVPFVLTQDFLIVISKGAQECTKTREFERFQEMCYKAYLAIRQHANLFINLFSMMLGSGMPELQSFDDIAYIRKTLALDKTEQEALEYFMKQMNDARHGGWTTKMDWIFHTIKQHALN
Sequence (P27986 whole entry partner): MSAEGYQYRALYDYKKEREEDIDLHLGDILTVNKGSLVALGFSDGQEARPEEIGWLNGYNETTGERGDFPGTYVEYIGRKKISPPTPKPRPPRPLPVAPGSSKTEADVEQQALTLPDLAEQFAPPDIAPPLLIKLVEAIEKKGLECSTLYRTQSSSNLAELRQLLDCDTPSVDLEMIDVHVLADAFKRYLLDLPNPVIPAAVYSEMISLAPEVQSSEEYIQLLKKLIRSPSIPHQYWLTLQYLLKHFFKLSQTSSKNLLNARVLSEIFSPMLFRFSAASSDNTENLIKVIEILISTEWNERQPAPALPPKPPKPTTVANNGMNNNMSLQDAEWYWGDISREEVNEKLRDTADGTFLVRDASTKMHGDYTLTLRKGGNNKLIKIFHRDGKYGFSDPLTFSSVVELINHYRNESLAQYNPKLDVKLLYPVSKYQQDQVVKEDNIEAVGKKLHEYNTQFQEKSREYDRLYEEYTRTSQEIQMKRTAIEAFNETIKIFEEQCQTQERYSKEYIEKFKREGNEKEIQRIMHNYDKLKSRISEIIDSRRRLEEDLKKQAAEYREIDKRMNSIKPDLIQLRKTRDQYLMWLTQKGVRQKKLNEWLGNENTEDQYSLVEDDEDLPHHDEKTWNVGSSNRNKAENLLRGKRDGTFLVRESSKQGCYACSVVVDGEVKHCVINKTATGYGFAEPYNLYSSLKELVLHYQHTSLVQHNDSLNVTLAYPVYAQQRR
pIC50: −log10 of the molar value.
experimental.endpoint: pIC50

compound="Cc1cc(C(C)Nc2sc3ccccc3c2C(=O)O)c2cc(-c3ccccc3)n(C)c(=O)c2c1 (stereo not drawn) [Example 92]" meas_value=6.05
compound="Cc1cc(C(C)Nc2ccccc2C(=O)O)c2cc(-c3cccc(C#N)c3)n(C)c(=O)c2c1 (stereo not drawn) [Example 3]" meas_value=6.17
compound="Cc1cc(C(C)Nc2ccccc2C(=O)O)c2cc(/C=C/c3ccccc3)n(C)c(=O)c2c1 (stereo not drawn) [Example 44]" meas_value=6.10
compound="Cc1cc(C(C)Nc2ccccc2C(=O)O)c2cc(-c3cnc(C(C)(C)O)nc3)n(C)c(=O)c2c1 (stereo not drawn) [Example 66]" meas_value=5.95
compound="Cc1cc([C@@H](C)Nc2ccccc2C(=O)O)c2cc(-c3ccc(C(C)(C)O)nc3)n(C)c(=O)c2c1 [Example 56]" meas_value=5.98
compound="COc1ccc(-c2cc3c(C(C)Nc4ccccc4C(=O)O)cc(C)cc3c(=O)n2C)cn1 (stereo not drawn) [Example 15]" meas_value=6.07
compound="Cc1cc(C(C)Nc2ccccc2C(=O)O)c2cc(-c3cnn(CC45CC6C[C@H](C4)C[C@H](C6)C5)c3C)n(C)c(=O)c2c1 (stereo partly drawn) [Example 87]" meas_value=5.82
compound="Cc1cc(C(C)Nc2ccccc2C(=O)O)c2cc(-c3ccc4c(c3)C(=O)N(C)C4)n(C)c(=O)c2c1 (stereo not drawn) [Example 75]" meas_value=6.01
compound="Cc1cc(C(C)Nc2ccccc2C(=O)O)c2cc(-c3ccc(C(C)(C)O)nc3)n(C)c(=O)c2c1 (stereo not drawn) [Example 55]" meas_value=6.14

----------
target: PI3Kα (p110/p85) kinase (wild type, "WT") (Homo sapiens, UniProt P42336); experiment: PI3Kα (p110/p85) kinase ADP-Glo Assay; conditions: 25 uM ATP
Sequence (P42336 whole entry, one chain of several): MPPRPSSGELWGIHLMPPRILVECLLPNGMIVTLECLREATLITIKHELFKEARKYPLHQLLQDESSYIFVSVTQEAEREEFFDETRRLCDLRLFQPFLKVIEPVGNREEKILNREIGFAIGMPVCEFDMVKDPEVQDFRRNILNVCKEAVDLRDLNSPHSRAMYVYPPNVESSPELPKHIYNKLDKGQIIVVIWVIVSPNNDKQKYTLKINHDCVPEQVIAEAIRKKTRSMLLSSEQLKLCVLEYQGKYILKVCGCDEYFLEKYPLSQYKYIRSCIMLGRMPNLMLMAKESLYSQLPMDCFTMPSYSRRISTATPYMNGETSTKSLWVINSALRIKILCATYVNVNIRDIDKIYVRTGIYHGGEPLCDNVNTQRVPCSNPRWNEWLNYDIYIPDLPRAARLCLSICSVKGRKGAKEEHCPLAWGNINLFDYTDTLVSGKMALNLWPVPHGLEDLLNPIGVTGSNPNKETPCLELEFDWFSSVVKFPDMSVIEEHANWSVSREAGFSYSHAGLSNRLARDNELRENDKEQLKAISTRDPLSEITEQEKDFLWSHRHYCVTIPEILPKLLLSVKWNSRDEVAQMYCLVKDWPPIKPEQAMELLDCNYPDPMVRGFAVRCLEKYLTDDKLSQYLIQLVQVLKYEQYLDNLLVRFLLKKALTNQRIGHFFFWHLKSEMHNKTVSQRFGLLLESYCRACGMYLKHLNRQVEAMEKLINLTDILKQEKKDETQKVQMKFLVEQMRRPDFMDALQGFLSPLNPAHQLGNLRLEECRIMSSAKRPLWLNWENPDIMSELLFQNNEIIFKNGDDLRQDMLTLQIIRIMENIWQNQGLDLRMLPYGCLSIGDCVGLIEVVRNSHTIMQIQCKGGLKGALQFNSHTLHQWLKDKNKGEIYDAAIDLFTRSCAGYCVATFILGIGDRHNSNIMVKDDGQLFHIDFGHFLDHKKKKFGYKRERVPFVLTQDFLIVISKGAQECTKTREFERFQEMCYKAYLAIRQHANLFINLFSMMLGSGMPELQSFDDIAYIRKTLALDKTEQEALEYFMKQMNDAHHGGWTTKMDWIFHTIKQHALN
Criterion: IC50 strictly under 10 µM. Met: satisfied. Not met: not satisfied.

molecule="Cc1cc(C(C)Nc2ccccc2C(=O)O)c2cc(-c3ccc(C(F)(F)F)nc3)n(C)c(=O)c2c1 (stereo not drawn)" assayed_system="PI3Kα (p110/p85) kinase (wild type, \"WT\") (Homo sapiens, UniProt P42336)" assigned_class="not satisfied"
molecule="Cc1cc(C(C)Nc2ccccc2C(=O)O)c2cc(-c3ccc4c(c3)C(=O)N(C)C4)n(C)c(=O)c2c1 (stereo not drawn)" assayed_system="PI3Kα (p110/p85) kinase (wild type, \"WT\") (Homo sapiens, UniProt P42336)" assigned_class="not satisfied"
molecule="Cc1cc(C(C)Nc2ccccc2C(=O)O)c2cc(-c3nc4ccccc4s3)n(C)c(=O)c2c1 (stereo not drawn)" assayed_system="PI3Kα (p110/p85) kinase (wild type, \"WT\") (Homo sapiens, UniProt P42336)" assigned_class=satisfied
molecule="Cc1cc(C(C)Nc2ccccc2C(=O)O)c2cc(-c3ccc(-c4cnn(C)c4)cc3)n(C)c(=O)c2c1 (stereo not drawn)" assayed_system="PI3Kα (p110/p85) kinase (wild type, \"WT\") (Homo sapiens, UniProt P42336)" assigned_class=satisfied
molecule="Cc1cc(C(C)Nc2ccccc2C(=O)O)c2cc(-c3cnc(C(C)(C)O)nc3)n(C)c(=O)c2c1 (stereo not drawn)" assayed_system="PI3Kα (p110/p85) kinase (wild type, \"WT\") (Homo sapiens, UniProt P42336)" assigned_class="not satisfied"
